molecular target: Histone deacetylase 8 (Homo sapiens); experiment: Inhibition of HDAC8 in HeLa cells
Sequence (Q9BY41 whole entry): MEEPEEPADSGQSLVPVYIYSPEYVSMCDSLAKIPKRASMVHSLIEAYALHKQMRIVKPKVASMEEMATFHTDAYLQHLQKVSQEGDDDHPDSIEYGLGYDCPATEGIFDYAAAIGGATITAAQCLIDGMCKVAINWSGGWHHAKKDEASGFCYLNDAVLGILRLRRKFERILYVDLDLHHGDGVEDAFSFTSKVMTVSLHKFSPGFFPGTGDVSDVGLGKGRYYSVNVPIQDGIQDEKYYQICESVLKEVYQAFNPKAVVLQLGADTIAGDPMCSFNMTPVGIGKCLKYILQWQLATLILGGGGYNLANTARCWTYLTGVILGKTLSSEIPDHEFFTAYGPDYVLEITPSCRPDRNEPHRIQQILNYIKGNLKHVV
pIC50: −log10 of the molar value.
MEASUREMENT_LABEL: pIC50

| COMPOUND_STRING | MEASUREMENT_LABEL | QUANTITATIVE_READOUT |
| --- | --- | --- |
| CCSC(=S)SCC(=O)c1ccc(OC)cc1 | pIC50 | 4.80 |

====

molecular target: Histone deacetylase; test: Inhibition of HDAC in HeLa cells; type: cell-based, Homo sapiens
Reported pIC50 values follow for various compounds
MEASUREMENT_LABEL: pIC50

| COMPOUND_STRING | MEASUREMENT_LABEL | RESULT |
| --- | --- | --- |
| CCOC(=O)Nc1cccc(C(=O)CSC(=S)SCC)c1 | pIC50 | 6.7 |
| CCSC(=S)SCC(=O)c1ccc(OC)c(OC)c1 | pIC50 | 5.4 |
| CSC(=S)SCC(=O)c1ccc(C)cc1 | pIC50 | 6.4 |
| CCSC(=S)SCC(=O)c1ccc2c(c1)OCO2 | pIC50 | 6.3 |
| Cc1ccc(C(=O)CSC(=S)SCc2ccccc2)cc1 | pIC50 | 6.6 |
| CCSC(=S)SCC(=O)c1ccc(NS(C)(=O)=O)cc1 | pIC50 | 5.7 |
| CSC(=S)SCC(=O)c1ccc(Cl)c(Cl)c1 | pIC50 | 7 |
| CCSC(=S)SCC(=O)c1ccc(NC(C)=O)cc1 | pIC50 | 6.4 |
| COc1ccc(C(=O)CSC(C)=O)cc1 | pIC50 | 6.3 |
| O=C(CSC(=S)Sc1ccccc1)c1ccc(Cl)c(Cl)c1 | pIC50 | 7 |
| CCSC(=S)SCC(=O)c1ccc(Cl)c(Cl)c1 | pIC50 | 7.1 |
| CCSC(=S)SCC(=O)c1cccc(NC(C)=O)c1 | pIC50 | 6.2 |
| CCSC(=S)SCC(=O)Nc1ccc(Cl)c(Cl)c1 | pIC50 | 5.6 |
| CCSC(=S)SCC(=O)c1ccc2c(c1)OCCO2 | pIC50 | 6.3 |
| CCSC(=S)SCC(=O)c1ccccc1 | pIC50 | 5.7 |
| Cc1ccc(C(=O)CSC(=S)SC(C)C)cc1 | pIC50 | 5.9 |
| CCSC(=S)SCC(=O)c1ccc(C)cc1 | pIC50 | 6.2 |
